# measured.target: T1, HLA-A*0201 (human)
# T1 construct: also called HLA-A2.1; HLA A2.1
# measurement.description: iTopia affinity;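 note: peptide affinity for plate-bound HLA-A2 molecules (iTopia system), with ED50 derived from an eight-point serial peptide dilution series run under binding assay conditions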
Would you kindly list ED50 for each of these binders?
One number for each entry, in µM.

Worked cases, ED50 given:
>>> print(df.to_string())
                                     binder  reported_measurement
0        HLQSQVEEL [cdr2 128-136 HLQSQVEEL]                    10
1        DSLSHKAVQ [cdr2 372-380 DSLSHKAVQ]                     9
2  TILSSLAGS (Position printed as 313-221) [cdr2 313-221 TILSSLAGS]                     2

# context switch: different binder, same ED50
Record CLQTNIDHL [cdr2 121-129 CLQTNIDHL] . Reported ED50: 20
